- System: PANC-1 (pancreatic cancer)
- ASSAY OVERVIEW: Solid tumor cell growth inhibition, MTT, 72 h (Example 7)
- Format: cell-based, human
- ASSAY CONDITIONS: Homo sapiens; 72 h, MTT, PANC-1
PROPERTY: IC90

| COMPOUND | EXPERIMENTAL RESULT |
| --- | --- |
| COc1ccc2cc1Oc1ccc(cc1)C[C@H]1c3cc(c(OC)cc3CCN1C)Oc1c(OC)c(OC)c(CN3CCN(CCO)CC3)c3c1[C@H](C2)N(C)CC3 | 11 µg/mL |
| COc1ccc2cc1Oc1ccc(cc1)C[C@H]1c3cc(c(OC)cc3CCN1C)Oc1c(OC)c(OC)c(CNCc3ccc(C)o3)c3c1[C@H](C2)N(C)CC3 | 9.71 µg/mL |
| COc1ccc2cc1Oc1ccc(cc1)C[C@H]1c3cc(c(OC)cc3CCN1C)Oc1c(OC)c(OC)c(CN3CCCC(CO)C3)c3c1[C@H](C2)N(C)CC3 (some centres unmarked) | 7.79 µg/mL |
| COc1ccc2cc1Oc1ccc(cc1)C[C@H]1c3cc(c(OC)cc3CCN1C)Oc1c(OC)c(OC)c(CN3CCCC(C)C3)c3c1[C@H](C2)N(C)CC3 (some centres unmarked) | 8.26 µg/mL |
| COc1ccc2cc1Oc1ccc(cc1)C[C@H]1c3cc(c(OC)cc3CCN1C)Oc1c(OC)c(OC)c(CNc3nccs3)c3c1[C@H](C2)N(C)CC3 | 9.25 µg/mL |
| COc1ccc2cc1Oc1ccc(cc1)C[C@H]1c3cc(c(OC)cc3CCN1C)Oc1c(OC)c(OC)c(CNCc3cccnc3)c3c1[C@H](C2)N(C)CC3 | 13.9 µg/mL |
| COc1ccc2cc1Oc1ccc(cc1)C[C@H]1c3cc(c(OC)cc3CCN1C)Oc1c(OC)c(OC)c(CNCC(C)O)c3c1[C@H](C2)N(C)CC3 (some centres unmarked) | 14.7 µg/mL |
| COc1ccc2cc1Oc1ccc(cc1)C[C@H]1c3cc(c(OC)cc3CCN1C)Oc1c(OC)c(OC)c(COC(=O)c3ccc(N(C)C)cc3)c3c1[C@H](C2)N(C)CC3 | 11.1 µg/mL |
| COCc1c2c3c(c(OC)c1OC)Oc1cc4c(cc1OC)CCN(C)[C@H]4Cc1ccc(cc1)Oc1cc(ccc1OC)C[C@@H]3N(C)CC2 | > 10 µg/mL |
| COc1ccc2cc1Oc1ccc(cc1)C[C@H]1c3cc(c(OC)cc3CCN1C)Oc1c(OC)c(OC)c(COC(=O)c3ccccc3)c3c1[C@H](C2)N(C)CC3 | 8.76 µg/mL |
| COc1ccc2cc1Oc1ccc(cc1)C[C@H]1c3cc(c(OC)cc3CCN1C)Oc1c(OC)c(OC)c(COCc3ccsc3)c3c1[C@H](C2)N(C)CC3 | 4.9 µg/mL |
| COc1ccc2cc1Oc1ccc(cc1)C[C@H]1c3cc(c(OC)cc3CCN1C)Oc1c(OC)c(OC)c(CNCc3cccs3)c3c1[C@H](C2)N(C)CC3 | 8.04 µg/mL |
| COc1ccc2cc1Oc1ccc(cc1)C[C@H]1c3cc(c(OC)cc3CCN1C)Oc1c(OC)c(OC)c(CN3CCCC3)c3c1[C@H](C2)N(C)CC3 | 13.4 µg/mL |
| CNCc1c2c3c(c(OC)c1OC)Oc1cc4c(cc1OC)CCN(C)[C@H]4Cc1ccc(cc1)Oc1cc(ccc1OC)C[C@@H]3N(C)CC2 | 5.16 µg/mL |
| COc1ccc2cc1Oc1ccc(cc1)C[C@H]1c3cc(c(OC)cc3CCN1C)Oc1c(OC)c(OC)c(CNCc3ccco3)c3c1[C@H](C2)N(C)CC3 | 6.04 µg/mL |
| COc1ccc2cc1Oc1ccc(cc1)C[C@H]1c3cc(c(OC)cc3CCN1C)Oc1c(OC)c(OC)c(Cn3cccn3)c3c1[C@H](C2)N(C)CC3 | 9.8 µg/mL |
| COc1ccc2cc1Oc1ccc(cc1)C[C@H]1c3cc(c(OC)cc3CCN1C)Oc1c(OC)c(OC)c(CN3CCCC(O)C3)c3c1[C@H](C2)N(C)CC3 (some centres unmarked) | 9.14 µg/mL |
| COc1ccc2cc1Oc1ccc(cc1)C[C@H]1c3cc(c(OC)cc3CCN1C)Oc1c(OC)c(OC)c(CNC(C)C)c3c1[C@H](C2)N(C)CC3 | 13.2 µg/mL |
| COc1ccc2cc1Oc1ccc(cc1)C[C@H]1c3cc(c(OC)cc3CCN1C)Oc1c(OC)c(OC)c(CNC3CC3)c3c1[C@H](C2)N(C)CC3 | 7.35 µg/mL |
| COc1ccc2cc1Oc1ccc(cc1)C[C@H]1c3cc(c(OC)cc3CCN1C)Oc1c(OC)c(OC)c(CN3CCOCC3)c3c1[C@H](C2)N(C)CC3 | 8.88 µg/mL |
| COc1ccc2cc1Oc1ccc(cc1)C[C@H]1c3cc(c(OC)cc3CCN1C)Oc1c(OC)c(OC)c(CN3CCN(c4ccccc4)CC3)c3c1[C@H](C2)N(C)CC3 | 4.84 µg/mL |
| COCCCOCc1c2c3c(c(OC)c1OC)Oc1cc4c(cc1OC)CCN(C)[C@H]4Cc1ccc(cc1)Oc1cc(ccc1OC)C[C@@H]3N(C)CC2 | 10 µg/mL |
| COc1ccc2cc1Oc1ccc(cc1)C[C@H]1c3cc(c(OC)cc3CCN1C)Oc1c(OC)c(OC)c(CN3CCC(N(C)C)CC3)c3c1[C@H](C2)N(C)CC3 | 6.31 µg/mL |

====

# IC90 per record follows
- System: NB4 (acute promyelocytic leukemia, AML)
- ASSAY OVERVIEW: Leukemia cell growth inhibition, MTT, 72 h (Example 5)
- Format: cell-based, human
- ASSAY CONDITIONS: Homo sapiens; 72 h, MTT

| MOLECULE | IC90 [mg/L] |
| --- | --- |
| COc1ccc2cc1Oc1ccc(cc1)C[C@H]1c3cc(c(OC)cc3CCN1C)Oc1c(OC)c(OC)c(CNC(C)C)c3c1[C@H](C2)N(C)CC3 | 4 |
| COc1ccc2cc1Oc1ccc(cc1)C[C@H]1c3cc(c(OC)cc3CCN1C)Oc1c(OC)c(OC)c(COC(=O)c3cccs3)c3c1[C@H](C2)N(C)CC3 | 4 |
| COc1ccc2cc1Oc1ccc(cc1)C[C@H]1c3cc(c(OC)cc3CCN1C)Oc1c(OC)c(OC)c(CN3CCCC3)c3c1[C@H](C2)N(C)CC3 | 2 |
| COc1ccc2cc1Oc1ccc(cc1)C[C@H]1c3cc(c(OC)cc3CCN1C)Oc1c(OC)c(OC)c(COCCOc3ccccc3)c3c1[C@H](C2)N(C)CC3 | 1.41 |
| COc1ccc2cc1Oc1ccc(cc1)C[C@H]1c3cc(c(OC)cc3CCN1C)Oc1c(OC)c(OC)c(CN3CCCCC3)c3c1[C@H](C2)N(C)CC3 | 1.4 |
| COc1ccc2cc1Oc1ccc(cc1)C[C@H]1c3cc(c(OC)cc3CCN1C)Oc1c(OC)c(OC)c(CNCC(C)O)c3c1[C@H](C2)N(C)CC3 (stereo partly drawn) | 5.66 |

====

# IC50 per record follows
- Test system: A549 (human lung cancer)
- ASSAY OVERVIEW: Solid tumor cell growth inhibition, MTT, 72 h (Example 7)
- Type: cell-based
- ASSAY CONDITIONS: Homo sapiens; 72 h, MTT, A549
- Description: […] Obtaining 4000 well-growing human solid tumor cells and inoculating them into wells of a 96-well cell culture plate. […] Then the viable cell concentration is determined by the MTT method and the cell viability (%) after drug treatment is calculated. […]

| MOLECULE | ASSAY SYSTEM | IC50 / µg/mL |
| --- | --- | --- |
| COc1ccc2cc1Oc1ccc(cc1)C[C@H]1c3cc(c(OC)cc3CCN1C)Oc1c(OC)c(OC)c(CNCc3ccco3)c3c1[C@H](C2)N(C)CC3 [BS-TE-350] | A549 (human lung cancer) | 3 |
| COc1ccc2cc1Oc1ccc(cc1)C[C@H]1c3cc(c(OC)cc3CCN1C)Oc1c(OC)c(OC)c(COC(=O)c3ccc(N(C)C)cc3)c3c1[C@H](C2)N(C)CC3 [BS-TE-204] | A549 (human lung cancer) | 3.12 |
| COc1ccc2cc1Oc1ccc(cc1)C[C@H]1c3cc(c(OC)cc3CCN1C)Oc1c(OC)c(OC)c(CN3CCN(C(C)C)CC3)c3c1[C@H](C2)N(C)CC3 [BS-TE-333] | A549 (human lung cancer) | 1.5 |

====

# IC90 per record follows
- System: A549 (human lung cancer)
- ASSAY OVERVIEW: Solid tumor cell growth inhibition, MTT, 72 h (Example 7)
- Type: cell-based
- ASSAY CONDITIONS: Homo sapiens; 72 h, MTT, A549

| MOLECULE | MODIFIER SIGN | IC90, µg/mL |
| --- | --- | --- |
| COc1ccc2cc1Oc1ccc(cc1)C[C@H]1c3cc(c(OC)cc3CCN1C)Oc1c(OC)c(OC)c(COC(=O)c3ccccc3)c3c1[C@H](C2)N(C)CC3 | > | 16 |
| COc1ccc2cc1Oc1ccc(cc1)C[C@H]1c3cc(c(OC)cc3CCN1C)Oc1c(OC)c(OC)c(CN3CCSCC3)c3c1[C@H](C2)N(C)CC3 | = | 9.9 |
| CCN1CCN(Cc2c3c4c(c(OC)c2OC)Oc2cc5c(cc2OC)CCN(C)[C@H]5Cc2ccc(cc2)Oc2cc(ccc2OC)C[C@@H]4N(C)CC3)CC1 | = | 16 |
| COc1ccc2cc1Oc1ccc(cc1)C[C@H]1c3cc(c(OC)cc3CCN1C)Oc1c(OC)c(OC)c(COC(=O)c3cccs3)c3c1[C@H](C2)N(C)CC3 | > | 16 |
| COc1ccc2cc1Oc1ccc(cc1)C[C@H]1c3cc(c(OC)cc3CCN1C)Oc1c(OC)c(OC)c(CN3CCC(O)C3)c3c1[C@H](C2)N(C)CC3 (stereo partly drawn) | = | 6.34 |
| COc1ccc2cc1Oc1ccc(cc1)C[C@H]1c3cc(c(OC)cc3CCN1C)Oc1c(OC)c(OC)c(CNCc3cccs3)c3c1[C@H](C2)N(C)CC3 | = | 12.8 |
